ENDPOINT NAME: melting point (°C)
Numbers only, in °C.

COMPOUND STRUCTURE: CS(=O)(=O)c1cccc(-c2ccc([C@@H]3[C@@H](CC[C@H](O)c4ccc(F)cc4)C(=O)N3c3ccc(F)cc3)cc2)c1
VALUE UNITS: °C
melting point: 104

Batch of 2 compounds: report melting point for each.
1. COc1cc(-c2ccc([C@@H]3[C@@H](CC[C@H](O)c4ccc(F)cc4)C(=O)N3c3ccc(F)cc3)cc2)cc(OC)c1OC
2. O=C1[C@H](CC[C@H](O)c2ccc(F)cc2)[C@@H](c2ccc(-c3ccc(O)cc3)cc2)N1c1ccc(F)cc1

Ans.
1. 103
2. 110

The reported numbers originate from patent US7320972B2.
